- targetEntity: VCPIP1 (UniProt Q96JH7)
- Sequence (whole entry): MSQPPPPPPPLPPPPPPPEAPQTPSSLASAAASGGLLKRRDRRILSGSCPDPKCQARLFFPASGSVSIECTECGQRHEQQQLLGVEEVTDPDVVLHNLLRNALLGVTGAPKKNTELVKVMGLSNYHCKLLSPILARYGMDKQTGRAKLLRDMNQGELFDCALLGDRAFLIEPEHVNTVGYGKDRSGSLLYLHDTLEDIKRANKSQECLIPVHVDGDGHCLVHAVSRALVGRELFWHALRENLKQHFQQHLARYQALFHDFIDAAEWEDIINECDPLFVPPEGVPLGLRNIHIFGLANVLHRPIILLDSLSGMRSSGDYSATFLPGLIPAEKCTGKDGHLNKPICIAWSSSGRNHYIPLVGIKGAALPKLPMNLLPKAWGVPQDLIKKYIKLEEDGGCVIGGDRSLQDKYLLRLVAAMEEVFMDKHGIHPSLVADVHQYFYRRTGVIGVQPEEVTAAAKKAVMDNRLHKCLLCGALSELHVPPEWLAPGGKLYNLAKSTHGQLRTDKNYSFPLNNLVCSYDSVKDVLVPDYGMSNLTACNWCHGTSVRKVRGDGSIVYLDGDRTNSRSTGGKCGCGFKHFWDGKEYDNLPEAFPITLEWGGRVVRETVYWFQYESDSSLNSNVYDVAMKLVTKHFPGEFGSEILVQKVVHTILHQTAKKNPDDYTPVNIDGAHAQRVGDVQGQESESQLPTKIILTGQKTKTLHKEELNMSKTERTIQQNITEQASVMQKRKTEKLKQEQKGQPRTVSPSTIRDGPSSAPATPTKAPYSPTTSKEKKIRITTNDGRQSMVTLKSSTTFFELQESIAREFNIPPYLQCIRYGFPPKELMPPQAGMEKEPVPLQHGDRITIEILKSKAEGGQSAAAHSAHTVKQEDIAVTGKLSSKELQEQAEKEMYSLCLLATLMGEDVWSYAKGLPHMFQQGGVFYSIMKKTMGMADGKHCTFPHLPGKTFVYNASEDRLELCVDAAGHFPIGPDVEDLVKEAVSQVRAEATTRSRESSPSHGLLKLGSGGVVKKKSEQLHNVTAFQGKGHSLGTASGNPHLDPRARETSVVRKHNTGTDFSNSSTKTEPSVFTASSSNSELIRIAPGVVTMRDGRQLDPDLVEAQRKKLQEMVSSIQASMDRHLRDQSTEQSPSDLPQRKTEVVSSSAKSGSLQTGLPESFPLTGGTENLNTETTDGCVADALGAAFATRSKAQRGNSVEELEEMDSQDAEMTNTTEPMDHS
- assayExplanation: log2 ratio of Biotin-Ahx-Ub-VS probe labelling (fragment/DMSO); higher = less target engagement (more negative = stronger competition), active = hit call of the paper (q ≤ 0.05, log2 ratio ≤ -1)
- runConditions: compound concentration: 200 uM; treatment time: 3 h
For each record, write down the corresponding log2 ratio of Biotin-Ahx-Ub-VS probe labelling.
Form: value (number only, do not type unit).

Provide the documented log2 ratio of Biotin-Ahx-Ub-VS probe labelling with VCPIP1 (UniProt Q96JH7) as the system for Cc1ccc(N(C(=O)CCl)C2C=CS(=O)(=O)C2)cc1 (centres undefined)
-0.0885

Provide the documented log2 ratio of Biotin-Ahx-Ub-VS probe labelling with VCPIP1 (UniProt Q96JH7) as the system for O=C(CCl)N1CCC(OCc2ccccc2F)CC1
-2.86

Provide the documented log2 ratio of Biotin-Ahx-Ub-VS probe labelling with VCPIP1 (UniProt Q96JH7) as the system for COc1ccc(CN(C)C(=O)CCl)cc1
-1.54

Provide the documented log2 ratio of Biotin-Ahx-Ub-VS probe labelling with VCPIP1 (UniProt Q96JH7) as the system for O=C(CCl)NCc1ccc2c(c1)OCO2
-2

Provide the documented log2 ratio of Biotin-Ahx-Ub-VS probe labelling with VCPIP1 (UniProt Q96JH7) as the system for O=C(CCl)NC1CCC2(CC1)OCCO2
-0.827

Provide the documented log2 ratio of Biotin-Ahx-Ub-VS probe labelling with VCPIP1 (UniProt Q96JH7) as the system for Cc1cccnc1NC(=O)C1CCN(C(=O)CCl)CC1.Cl
-0.543

Provide the documented log2 ratio of Biotin-Ahx-Ub-VS probe labelling with VCPIP1 (UniProt Q96JH7) as the system for O=C(CCl)N1CC=C(c2c[nH]c3ccccc23)CC1
-2.41

Provide the documented log2 ratio of Biotin-Ahx-Ub-VS probe labelling with VCPIP1 (UniProt Q96JH7) as the system for CC(NC(=O)CCl)c1cnn(C2CC2)c1 (centres undefined)
-1.15

Provide the documented log2 ratio of Biotin-Ahx-Ub-VS probe labelling with VCPIP1 (UniProt Q96JH7) as the system for CC(NC(=O)CCl)c1cccc2ccccc12 (centres undefined)
-1.05

Provide the documented log2 ratio of Biotin-Ahx-Ub-VS probe labelling with VCPIP1 (UniProt Q96JH7) as the system for O=C(CCl)N1CCCC2CCCCC21 (centres undefined)
-2.13

Provide the documented log2 ratio of Biotin-Ahx-Ub-VS probe labelling with VCPIP1 (UniProt Q96JH7) as the system for O=C(CCl)N1CCC(S(=O)(=O)c2ccc(F)cc2)CC1
-0.527

Provide the documented log2 ratio of Biotin-Ahx-Ub-VS probe labelling with VCPIP1 (UniProt Q96JH7) as the system for Cc1ccc(-c2nnc(C)[nH]2)c(NC(=O)CCl)c1
-2.55

Provide the documented log2 ratio of Biotin-Ahx-Ub-VS probe labelling with VCPIP1 (UniProt Q96JH7) as the system for NC(=O)C1CCCN(C(=O)CCl)C1 (centres undefined)
-0.167

Provide the documented log2 ratio of Biotin-Ahx-Ub-VS probe labelling with VCPIP1 (UniProt Q96JH7) as the system for Cl.O=C(CCl)NC1(c2ncccn2)CCC1
-0.136

Provide the documented log2 ratio of Biotin-Ahx-Ub-VS probe labelling with VCPIP1 (UniProt Q96JH7) as the system for O=C(CCl)NCC1(c2ccccc2)CC1
-2.43

Provide the documented log2 ratio of Biotin-Ahx-Ub-VS probe labelling with VCPIP1 (UniProt Q96JH7) as the system for COc1ccccc1C(C)NC(=O)CCl (centres undefined)
-0.998

Provide the documented log2 ratio of Biotin-Ahx-Ub-VS probe labelling with VCPIP1 (UniProt Q96JH7) as the system for O=C(CCl)N1CCN(c2nc3ccccc3o2)CC1
-0.288

Provide the documented log2 ratio of Biotin-Ahx-Ub-VS probe labelling with VCPIP1 (UniProt Q96JH7) as the system for Cc1ccc2nnc(CNC(=O)CCl)n2c1
-1.34

Provide the documented log2 ratio of Biotin-Ahx-Ub-VS probe labelling with VCPIP1 (UniProt Q96JH7) as the system for Cl.O=C(CCl)N1CCCC(c2ncc[nH]2)C1 (centres undefined)
-0.387

Provide the documented log2 ratio of Biotin-Ahx-Ub-VS probe labelling with VCPIP1 (UniProt Q96JH7) as the system for Cc1ncsc1CCNC(=O)CCl
0.0583

Provide the documented log2 ratio of Biotin-Ahx-Ub-VS probe labelling with VCPIP1 (UniProt Q96JH7) as the system for O=C(O)C1Cc2ccccc2CN1C(=O)CCl (centres undefined)
-0.368

Provide the documented log2 ratio of Biotin-Ahx-Ub-VS probe labelling with VCPIP1 (UniProt Q96JH7) as the system for O=C(CN1CCN(C(=O)CCl)CC1)Nc1cccc(F)c1
-0.698

Provide the documented log2 ratio of Biotin-Ahx-Ub-VS probe labelling with VCPIP1 (UniProt Q96JH7) as the system for O=C(CCl)N1CCCC1c1ccsc1 (centres undefined)
-1.07

Provide the documented log2 ratio of Biotin-Ahx-Ub-VS probe labelling with VCPIP1 (UniProt Q96JH7) as the system for Cc1ccccc1CN(C)C(=O)CCl
-1.46

Provide the documented log2 ratio of Biotin-Ahx-Ub-VS probe labelling with VCPIP1 (UniProt Q96JH7) as the system for COCC[C@@H](NC(=O)CCl)c1ccccc1
-0.654

Provide the documented log2 ratio of Biotin-Ahx-Ub-VS probe labelling with VCPIP1 (UniProt Q96JH7) as the system for CCCn1nccc1NC(=O)CCl
-0.41

Provide the documented log2 ratio of Biotin-Ahx-Ub-VS probe labelling with VCPIP1 (UniProt Q96JH7) as the system for CS(=O)(=O)N1CCCN(C(=O)CCl)CC1
-0.326

Provide the documented log2 ratio of Biotin-Ahx-Ub-VS probe labelling with VCPIP1 (UniProt Q96JH7) as the system for CC(C)n1nccc1NC(=O)CCl
-0.897

Provide the documented log2 ratio of Biotin-Ahx-Ub-VS probe labelling with VCPIP1 (UniProt Q96JH7) as the system for O=C(CCl)NCCc1ccc2c(c1)OCCO2
-2.55
